targetOrTestSystem: Neuronal acetylcholine receptor subunit alpha-7 (Rattus norvegicus)
Sequence (Q05941 whole entry): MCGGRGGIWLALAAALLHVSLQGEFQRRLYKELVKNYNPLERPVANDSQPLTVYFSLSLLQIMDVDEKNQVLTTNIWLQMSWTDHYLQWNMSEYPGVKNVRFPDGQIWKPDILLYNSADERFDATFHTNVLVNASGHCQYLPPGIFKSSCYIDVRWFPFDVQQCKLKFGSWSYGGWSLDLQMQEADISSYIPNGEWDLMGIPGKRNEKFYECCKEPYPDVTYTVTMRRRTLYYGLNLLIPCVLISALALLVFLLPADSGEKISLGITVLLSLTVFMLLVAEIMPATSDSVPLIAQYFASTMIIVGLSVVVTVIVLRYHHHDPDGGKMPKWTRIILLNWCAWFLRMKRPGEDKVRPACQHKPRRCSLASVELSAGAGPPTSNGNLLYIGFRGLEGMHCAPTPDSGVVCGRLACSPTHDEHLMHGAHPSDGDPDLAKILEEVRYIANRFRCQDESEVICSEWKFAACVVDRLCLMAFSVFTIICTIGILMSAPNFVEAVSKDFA
experimentNotes: Displacement of [125I]BTX from rat alpha7 nicotinic acetylcholine receptor expressed in GH4C1 cells
pKi: −log10 of the molar value.
Rule: Fulfilled for pKi not less than 8, Not fulfilled for anything less.

Solved cases (3 shown):
c1cc2oc(N3CCN4CCC3CC4)nc2nc1N1CCCC1 :: Fulfilled
CCC(C)c1cnc2nc(N3CCN4CCC3CC4)oc2c1 (stereo unspecified) :: Not fulfilled
c1cc2oc(N3CCN4CCC3CC4)nc2nc1N1CCCCC1 :: Not fulfilled

Say whether `Cc1nc2nc(N3CCN4CCC3CC4)oc2cc1Cl` shows pKi of 8 or more.
Fulfilled

Would you say `Fc1ccccc1-c1ccc2oc(N3CCN4CCC3CC4)nc2n1` shows pKi at minimum 8?
Fulfilled

Is the recorded value of pKi equal to or greater than 8 for this compound? `c1cc2oc(N3CCN4CCC3CC4)nc2nc1C1CCCC1`
Fulfilled
